assay: KKLEB cell viability reduction – uHTS, fluorescence assay plates, cytotoxicity control for CF NF-kB inhibitor project, primary screen (AID 602141); conditions: KKLEB CF airway cells viability, ATPlite luminescence, overnight; at 5 µM; cells stimulated with P. aeruginosa culture filtrate
The campaign covered roughly 360,000 compounds. About 1,300 (0.36%) were called active.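 The calls were made as follows: active = corrected activity change at or below -50% at 5 µM; inactive = the rest.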 Many of the other results were omitted from the sample, so actives are more common in it than they were.
Allowed answers: active, inactive

COCCN(C(=S)Nc1ccccc1OC)C1CCN(C(C)C)CC1
inactive
CN(C)c1ccc(C(=S)N2CCN(C(=S)Nc3ccc(Cl)cc3)CC2)cc1
inactive
O=C1CN(C(=O)c2ccccc2F)C(c2ccc(F)cc2)c2cc(F)ccc2N1 (stereo not given)
inactive
CCCNC(=O)CCn1cc(-c2ccc(OC)cc2)nc1CCN
inactive
Cn1c(CCNS(=O)(=O)c2ccc(F)cc2)nnc1SCc1cccnc1
inactive
O=C(C=CC(=O)Nc1ccc(F)cc1F)Nc1ccc(F)cc1F
inactive
O=C(O)c1cccnc1Sc1ncnc2sc3c(c12)CCC3
inactive
Cc1cnc(C(=O)Oc2cccc(Cl)c2Cl)cn1
inactive

So what was the verdict on CC[C@]12c3[nH]c4cc(CCC(=O)N(C)C)ccc4c3CCN1C(=O)[C@@H](CC(=O)NCCCn1ccnc1)C[C@@H]2C(=O)N1CCN(C(=O)C2CC2)CC1 in this test? inactive

So what was the verdict on c1ccc(CSc2ncnc3c2sc2nc(N4CCOCC4)c4c(c23)CCCC4)cc1 in this test? active
